# TESTED SYSTEM: SARS-CoV-2 RBD (SARS-CoV-2)
# TEST METHOD NOTES: ELISA, 100 ng coated RBD, neat supernatant, anti-human IgG-HRP
Each record here notes measured Binding SARS-CoV-2.
Reply: number alone, nothing else.

INSERT INTO results (binder, quantity, value_observed) VALUES
  ('Antibody 7 (SS6V7-C5) (antibody, V domains shown) VH: EVQLVQSGAEVKKPGESLKISCKGSENIFSGYWIGWVRQMPGKGLEWMGIIYPDDSDTRYNPSFQGQVTISADQSISTAYLQWSRLKASDTAMYYCARHLGGGSSWPIDYWGQGTLVTVSS VL: DIQMTQSPSSLSASVGDRVTITCRANQGISNYLAWFQQKPGKAPKSLIYAASSLQSGVPSKFSGNRSGTDFTLTISSLQPEDFATYYCQQYSSYPFTFGGGTKVEIK', 'Binding SARS-CoV-2', 1.16);

What value of Binding SARS-CoV-2 has been reported for the following binder? Antibody 10 (SS6V10-E1) (antibody, V domains shown) VH: EVQLVQSGAEVKKPGESLKISCQGSEDSFTGYWIGWVRQLPGKGLEWMGFIYPDDGDTRYSPAFQGLVTFSADKSITTAYLQWSSLKASDTAIYFCARHLGGGSSWPIDSWGQGTQVTVSS VL: DIQMTQSPSSLSASVGDRVTITCRASQGIRNYLAWFQQKPGKAPKSLIYAASSLQSGVPSKFSGSGYGTDFTLTINSLQPEDFATYYCQQYNNHPFTFGGGTKVEIK
1.31

What value of Binding SARS-CoV-2 has been reported for the following binder? Antibody 1 (SS6V1-B5) (antibody, V domains shown) VH: EVQLVESGGGLVQPGGSLRLSCAASGFILRNYEMQWVRQAPGKGLEWVSVIGNTGGTFYAGSVKGRFTISRENAKNSLYLQMNSLRAEDTALYYCARVTYTSSPLPFWFLDLWGRGTLVTVSS VL: DIQMTQSPSSLSASVGDRVTITCRASQSIGNYLNWYQQKSGKAPKILIYAASSLQSGVPSRFSGSGSGTDFTLTISSLQPEDFATYYCQQTYRTPPEDSFGQGTKVEIK
1.73

What value of Binding SARS-CoV-2 has been reported for the following binder? Antibody 9 (SS6V9-D11) (antibody, V domains shown) VH: QVQLQESGPGLVKPSGTLSLTCAVSGGSISSNIWWSWVRQPPGKGLEWIGDIYHSGSTNYNPSLEGRVTISIDKSKNQFSLRLTSLTAADTAVYYCARAISQQYFDSSVLGYWGQGILVTVSS VL: EIVMTQSPATLSVSPGERVTLSCRASQSVVTNLAWYQQKPGQAPRLLIYGASTRATGIPARFSGSGSGTEFTLTISSLQSEDFAIYHCQQYNNWPGYTFGQGTKVDIK
1.81

What value of Binding SARS-CoV-2 has been reported for the following binder? Antibody 19 (SS6V19-F4) (antibody, V domains shown) VH: EVQLVQSGSELKKPGASVKVSCKVSGYTFTDYNMNWVRQAPGQGLEWMGWINTNTGIPTYAQGFTGRFVFSLDTSVSTAYLQISSLKAEDTAIYYCARDGGWQLPYWYFDLWGRGTLVTVSS VL: EIVMTQSPATLSVSPGERVTLSCRASYSFSSSLAWYQQKPGQAPRLLIYGTSTRATGVPVRFSGSGSGTEFTLTISSLQSEDLAVYYCQQYYSWPLTFGQGTKVDIK
0.641

What value of Binding SARS-CoV-2 has been reported for the following binder? Antibody 15 (SS6V15-F6) (antibody, V domains shown) VH: EVQLVESGGGVVQPGRSLRLSCAASGFTFSSYAIHWVRQAPGKALEWVALISYDGRTKYYADSVKGRFTISRDNSKNTLYLQMNSLRAEDTAVYYCARLDIIITPPANDYWGQGTLVTVSS VL: EIVLTQSPGTLSLSPGDRATVSCRASQIVSSNYLAWYQQKPGQVPRLLIYDASSRATGIPDRFSGSGSGTDFTLTISRLEPEDFAVYYCHQYGDSRRTFGQGTKVDIK
0.674

What value of Binding SARS-CoV-2 has been reported for the following binder? Antibody 18 (SS6V18-E3) (antibody, V domains shown) VH: EVQLVESGGGLVQPGGSLRLSCAASGFTFSSYAMHWVRQVPGKGLEYVSSITSNGGGTFYADSVKGRFTISRDNSKNTVYLQMGSLSTEDMALYYCAREGIQGWVTYFDYWGRGILVTVSS VL: DIQMTQSPSSLSASIGDRVTITCRASQSISTNLNWYQQKPGKAPKLLIYAASSLPSGVPSRFSGSGSGTDFTLTISSLQPEDFANYLCQQTYTTPQYSFGQGTKVEIK
1.11

Source: patent US20240254204A1
